test system: Yersinia pseudotuberculosis YPIII; test: Inhibition of T3S in Yersinia pseudotuberculosis YPIII expressing yopE-luxAB at 3.13 uM after 3 hrs by luciferase reporter gene assay
Measured inhibition of individual entries
measuredQuantity: inhibition (%)

O=C(N/N=C/c1ccc(Cl)cc1O)c1ccc(Br)cc1 11
O=C(CCc1ccc(O)cc1)N/N=C/c1c(O)cc(O)cc1O 18
O=C(N/N=C/c1cc(Cl)cc(Cl)c1O)c1ccccc1[N+](=O)[O-] 16
O=C(N/N=C/c1cccc(F)c1O)c1cccc(C(F)(F)F)c1 3
COc1cc(C(=O)N/N=C/c2cc(Cl)cc(Cl)c2O)cc(OC)c1OC 13
O=C(CCc1ccc(F)cc1)N/N=C/c1cc(F)cc(Cl)c1O 2
